assay: yeast display, Sf9 membrane polyspecificity reagent, FACS + sequencing; frameworks hold sequencing errors
Quantity name: polyreactivity (PSR sort gate)

Sequence code	Quantity name	Reported
QVQLVESGGGLVQAGCSLRLSCAASGSTFRPYAMGWYRQAPGKERELVAAINNSGGSTYYADSVKGRFTISRDNAKNTVYLQMNSLKPEDTAVYYCAAEWYYYFIIMNYWGQGTQVTVSS	polyreactivity (PSR sort gate)	high polyreactivity
QVQLVESGGGLVQAGGSLRLSCAASGRIFNHNTMGWYRQAPGKERELVAAISRSGASTYYADSVKGRFTISRDNAKNTVYLQMNSLKPEDTAVYYCNAATYADGITIYDYWGQGTQVTVSS	polyreactivity (PSR sort gate)	low polyreactivity
QVQLVESGGGLVQAGGSLRLSCAASGFIFSAYSMGWYRPEPGKERELVAAISYSGGTTYYADSVKGRFTISRDNAKNTLYLQMNSLKPEDTAVYYCAAGVGYWGQGTQVTVSS	polyreactivity (PSR sort gate)	high polyreactivity
QVQLVESGGGLVQAGGSLRLICAASGRTFPGYAMGWYRPAPGKDRELVAAISNSGGRTYYADSVKGRFTISRDNAKKTVYLQMTSLKREDTAVYYCNATTDNGSNKRYYYWGQGTQVTVSS	polyreactivity (PSR sort gate)	high polyreactivity

Please examine the following record next.
Task: Fill in reported polyreactivity (PSR sort gate) for this entry: QVQLVESGGGLVQAGGSLRLSCAASGSIFKRNAMVSYRQAPGKERELVASISSGGSTHYADSVKGRFTISRDNAKNTVYLQMNSLTPEDTAVYYCAATSIRWSVCSFRRDYWGQGTQVTVSS
Result: low polyreactivity

====

test: yeast display, Sf9 membrane polyspecificity reagent, FACS + sequencing; frameworks hold sequencing errors
Quantity name: polyreactivity (PSR sort gate)

Solved cases below.
Sequence code	Reported
QVQLVESGGGLVQAGGSLRLSCAATGIIFSWYAMGWYRQAPVKERELVATISSGAHTYYADSVKGRFTISRDNAKNTVYLQMNRLKPEDTAVYYCGAANEFGVVWAQFDYWGQGPQVTVSS	low polyreactivity
QVQLVESGGGLVQAGGSLRLSCAASGRIFSGNVMGWYRQAPGKERELVAAISRSGGSTYYADSVKGRFTISRDNAKNTVYLQMNSLKPEDTAVYYCADVPTSNSFRSSFYYWGHGTQVTVSS	high polyreactivity
QVQLVESGGGFVQAGGSLRLSCAASGRTFRKYAMGWYRQAPGKERELVAAITSSGGSTYYADSVKGRFTISRDNAKNTVYLQMNSLKPEDTAVYYCAAGRHSEDNYWGQGTQVTVSS	high polyreactivity
QVQLVESGGGLVQAGGSLRLSCAASGSTFWNNAMGWYRQAPGKERELVAVINSSGGSTYYADSVKGRFTISRDNAKNTVYLQMNSLKPEDTAVYYCNADATDSYPEKDEHDSWGQGTQVTVSS	low polyreactivity
QVQLVESGGGLVQAGGSLRLSCAPSGSTFGWYAMGWYRQAPGKESELFAAITGDSASTYYADSVKGRFTISRDNAKNTVYLQMNSLKQEDTAVYYCAATKFSDFAYEAVIGYGYWGQGTQVTVSS	low polyreactivity
QVQLVESGGGLVQAGGSLRLSCAASGRISRLYAMGWYRQAPGKERELVAAITDSGGSTYYADSVKGRFTISRDNAKNTVYLHMNSLKPEDTAVYDCAATWSNWYREYYYWGQGTQVTVSS	high polyreactivity
QVQLVESGGGLVQAGGSLRVSCAAYGRIFLANAMGGYRTAAGKERELVAAISYSGGSTYYADSVKGRFTISRDNAKNTVYLQMNSLKPEDTAVYYCAADAFTWYTGRAWKYYYWGHGTQVTVSS	low polyreactivity
QVQLVESGGGLVQAGGSLRLSCAASGITSGTYAMGWYRQAPGKERELVAAISSSGGRTYYADSVKGRFTISRDNAKNTVYLQMTSLKPEDTAVSYCAAETDTTYAFYWGQGTQVNVSS	high polyreactivity

Task: Given QVQLVDSGGGLVQAGGSLRLSCAASGRNFSPYTMGWYRQAPGKVREMVAAIRSGDGRTYYADSVKGRFTISRDNAKNTVYLQMNSLKQEDTAVYYCAARRGKVYVSGNGYWGQGTQVTVSS , respond with its polyreactivity (PSR sort gate).
Result: high polyreactivity

Task: Input QVQLVESGGGLVQAGGSLRLSCAASGIIFRRYAMGWSRQAPGKERELVAAITHRGSTYYADSVKGRFTISRDNAKNTVYLQMNSLKPEDTAVYYCAADGFTRWGRYDYWGQGTQVTVSS , output reported polyreactivity (PSR sort gate).
Result: high polyreactivity

====

assay: yeast display, Sf9 membrane polyspecificity reagent, FACS + sequencing; frameworks hold sequencing errors
Quantity name: polyreactivity (PSR sort gate)

Sequence code	polyreactivity (PSR sort gate)
QVQLEDSGGGLVQAGVSLRLSSDASGSTIAGYVMGWYRQAPGKERELVAAISRSGGSTYYADSVKGRFTISRDNEKNTVYLQMNSLKPEDTAVYYCASRNSPGFPGDYWGQGSQVTVSS	high polyreactivity
QVQLVESGGGLVQAGGSLRLSCAASGRTFHFDAMGWYRQAPGKERELVASITWSAVRTYYADSVKGRFTISRDNAKYTVYLQMNSLKQEDTAVYYCAIDWDYRLMDYWGQGTQVTVSS	low polyreactivity
QVQLVESGGGLVQAGGSLRLSCAASGSTFTVNAMGWYRQAPGKERELVAAISYTDSITYYADSVKGRFTISRDNAKNTVYLQMNSLKPEDTAVYYCAVDYTVYFATYSWPYLSTHEYWGQGTQVTVSS	high polyreactivity
QVQLVESGGGLLQAGGSLRLSCAASGGIKSENAMGWYRQAPRKERELVAVITDGGSTNYADSVKGRFTISRDNAKNTVYLQMNSLKPEDTAVYYCAKDTYLELWLDPLYDYWGQGTQVTVSS	low polyreactivity
QVQLVESGGGLVKAGGSLRLSCAASGSNFTFYAMGWYRQAPGKVRELDATISLRGGRKYYADSVKGRFTISRDNAKNTVYLQMNSLKPEDTAVYYCNAPAYYGGYRFRGYNYWGQGTQVTVSS	high polyreactivity

Task: Entry QVQLVESGGGLVQAGGSLRLSCAASGRTFYYNTMGWYRQAPGKERELVASITSGSSTYYADSVKGRFTISRDNAKNTVYLQMNSLKPEDTAVYYCAVYRRYSVKYHYGYWGQGTQVTVSS needs its polyreactivity (PSR sort gate) filled in; supply it.
Result: high polyreactivity

Task: Item QVQLVESGGGLVQAGGSLRLSCAASGFTFGWYTMGWYRQAPGKERELDAAISLNGGSTYYADSVKGRFTISRDNAKNTVYLQMTSLKPEDTAVYYCAIRYRWPYYPYVYWGQGTQVTVSS : provide polyreactivity (PSR sort gate)
Result: low polyreactivity

Task: Consider the sequence QVQLVESGGGLVQAGGSLRLSCAASGYIFGVYAMGWYRQAPGKERELVAVITVTGGSTYYADSVKGRFTISRDNAKNTVYLQMNSLKPEDTAVYYCNTLEYLEYDYWGQGTQVTVSS . State its measured polyreactivity (PSR sort gate).
Result: high polyreactivity

Task: Specify reported polyreactivity (PSR sort gate) for the sequence shown: QVQLVESGGGLVQAGGSLRLSCAASGFTFNKNAMGWYRQEPRKERELVAAISSSVGSTRYADSVKGRFTISRDNAKNTVYLQRNSLKPEDTAVYYCAVYVTPHSGWWLYDYWGQGTQVTVSS
Result: high polyreactivity

Task: Look up polyreactivity (PSR sort gate) of QVQLQESGVGLVQAGGSLRLSCAASGTIFRISDMGSYRQAPGKEREFVAAITYGANTYYADSGKGRFTISRDNAKNTVYLQMNSLKPEDTAVYYWAVPPVKETILDYWGQGTQVTVSS and report it.
Result: low polyreactivity

Task: Look up and state reported polyreactivity (PSR sort gate) for QVQLVESGGGLVQAGGSLRLSCAASGSIFGYYAMGWYRQAPGTERELVATITWGGGSTYADSVKGRFTISRDNAKNTVYLQMNSLKPEDTAVYYCNAGYRYTSAQVTWEYDSWGQGTQVTVSS
Result: low polyreactivity

====

experiment: yeast display, Sf9 membrane polyspecificity reagent, FACS + sequencing; frameworks hold sequencing errors
Quantity name: polyreactivity (PSR sort gate)

Sequence code	Reported
QVQLVESGGGLVQAGGSLRLSCAASGRIFKGNAMGWYRQAPGKERELVAAISRNGGSTYYADSVKGRFTISRDNAKNTVSLLMNSLKPEDTAVYYCAAYGYRYTEGGWWRMDYWGQGTEVTVSS	high polyreactivity
QVQLVESGGGLVQAGGSLRLSCAASGFIFGFNAMGWYRQAPGKERELVAVFNRSGSRTYYADSVKGRFTISRDNAKNTVYLQMNSLKPEDTAVYYCNAYPRYQYWGQGTLVTVSS	high polyreactivity
QVQLVESGGGLVQAGGSLRLSCAASGSIFLSYAMGWYRQAPGKERELVAAISGRGGSTYYADSVKGRFTISRDNAKNTGYLQMNSLKPEDTAVNYCASEQWGWYWYDYWGQGTQVTVSS	high polyreactivity
QVQLVESGGGLVQAGGSLRLSCAASGSIIVRNALGWYRQEPGTERELVAAISWGGGRTYYADSVKGRFTISRDNAKNTVYLQMNSLKPEDTAVYYCAAVHRAVQMGYWGQGTQVTVSS	high polyreactivity
